Where do the numbers come from? From PubChem BioAssay AID1159580.

Assay: chemical genetic growth profiling, strain panel (AID 1159580);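 further: tested at 20 µM; growth read once vehicle control cultures reached saturation at 30 °C; 1 = growth at the plate median or of vehicle wells; lower values mean less growth of the strain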
Settings: S. cerevisiae deletion strains, growth OD, locus YPL153C, strain RAD53, stronger effect = lower value
The whole screen tested about 5,500 compounds, of which about 2,000 (36%) were called active. Another 18% or so got no clear call; they are omitted. This is one part of the list.
measurement.kind: normalized growth
Give your answer as a number; write no unit.

Example cases with answers are listed next.
Q: Endpoint output: normalized growth of C/C(=N/Nc1ccccc1)c1cc(Cl)cc(Cl)c1O . Value?
A: 0.78

Q: Then Cc1ccc(S(=O)(=O)Nc2ccc(Oc3ccc(F)cc3)cc2)cc1 ?
A: 0.862

Q: Would you kindly repeat that for COc1ccc(CC2CCC(=NOC(=O)c3c(Cl)cccc3Cl)CC2)cc1 (stereo unspecified) ?
A: 0.948

Q: # iterate: Cc1c(S(=O)(=O)c2ccc(Cl)cc2)csc1C(=O)NNc1cccc(Cl)c1
A: 0.857

Q: // repeat for O=C(CCn1c(=O)oc2ccccc21)Sc1ccc(C(F)(F)F)cc1 and report
A: 0.552

Continue with the next molecule.
Q: So what does the record say about normalized growth for O=C(CCn1c(=O)oc2ccccc21)Sc1ccc(Cl)cc1Cl ?
A: 0.216

* * *

Reported normalized growth values for the following molecules.
Assay: chemical genetic growth profiling, strain panel (AID 1159580)
Conditions: S. cerevisiae deletion strains, growth OD, locus YHR079C, strain IRE1, stronger effect = lower value
Hit rate of the full screen: of about 5,500 compounds, about 2,000 (36%) were called active. Not shown: some 18% with an inconclusive outcome. The list shows a part of the results.

Q: Given the molecule CC[C@H](CCC(C)[C@H]1CCC2C3CCC4C[C@@H](O)CC[C@]4(C)C3CC[C@@]21C)C(C)C (stereo not given in full) , what is its reported normalized growth?
A: 1.03 (inactive)

Q: Also check CS(=O)(=O)c1sc(C(=O)Sc2ccc(Cl)cc2)c2c1C=CCC2
A: 0.349 (active)

More entries:
Q: Record request: normalized growth value, item COC(=O)CCC(C)[C@H]1CCC2C3C(C[C@H](O)[C@@]21C)[C@@]1(C)CC[C@@H](O)C[C@H]1C[C@H]3O (stereo not given in full)
A: 0.984 (inactive)

Q: Then this molecule: COc1cc(C)c(C(=O)Oc2cc(C)c(C(=O)O)c(O)c2C)c(OC)c1C
A: 0.845 (active)

Q: Now try CC(C)CCCC(C)C1CCC2C3CC[C@H]4CCCC[C@]4(C)C3CC[C@]12C (stereo not given in full) .
A: 1 (inactive)

Q: Cool, now O=C(CCn1c(=O)oc2ccccc21)Sc1ccc(C(F)(F)F)cc1
A: 0.479 (active)

Q: Same thing, different molecule: CN(CCC(N)CC(=O)N[C@H]1C=CC(n2ccc(N)nc2=O)O[C@@H]1C(=O)O)C(=N)N (stereo not given in full)
A: 0.924 (inactive)

* * *

Experiment: chemical genetic growth profiling, strain panel (AID 1159580)
Conditions: S. cerevisiae deletion strains, growth OD, locus YOL006C, strain TOP1, stronger effect = lower value
Out of some 5,500 compounds screened, about 2,000 (36%) were called active. Not shown: some 18% with an inconclusive outcome. Some of the results follow.
measurement.kind: normalized growth
I'd appreciate a reply containing only the number, no unit.

These recorded examples may help you get a feel for the data.
Q: Report normalized growth for N#Cc1csc([N+](=O)[O-])c1 please.
A: 0.369

Q: Continue with N#Cc1cccc(Cn2c(=O)oc3ccccc32)c1
A: 1.04

Q: Would you mind doing CC(=O)Nc1ccccc1 as well?
A: 0.928

Q: COc1ccc(C(=O)CC(=O)c2ccc(C(C)(C)C)cc2)cc1 , same question.
A: 0.82

Q: Next up: COc1ccc(OCC(N)=O)cc1
A: 1.01

Q: Follow-up entry: O=C(Nc1ccccc1)Nc1ccc(C(F)(F)F)cc1Br
A: 0.722

Proceed to the following item.
Q: # input compound: COc1cc(S(C)=O)ccc1-c1nc2ncccc2[nH]1 (stereo unspecified) ; wanted: its normalized growth
A: 1.04

* * *

Test: chemical genetic growth profiling, strain panel (AID 1159580);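 further: tested at 20 µM; growth read once vehicle control cultures reached saturation at 30 °C; 1 = growth at the plate median or of vehicle wells; lower values mean less growth of the strain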
Conditions: S. cerevisiae deletion strains, growth OD, locus YNL224C, strain SQS1
The whole screen tested about 5,500 compounds, of which about 2,000 (36%) were called active. About 18% were inconclusive and are not listed. Cut-off read from the data, not from the text of the source: active = normalized growth mostly below about 0.91 (no sharp cut-off); inconclusive = no clear call, values can overlap the other calls; inactive = mostly above about 0.92. This is one part of the list.
Respond using exactly one of the listed classes: active, inactive

Q: Tell me the assay call for O=C1Nc2ccc(I)cc2/C1=C/c1cc(Br)c(O)c(Br)c1 please.
A: inactive

Q: And the next one, CNC(=O)[C@H]1O[C@@H](n2cnc3c(NCc4ccc(I)cc4)nc(Cl)nc32)[C@H](O)[C@@H]1O ?
A: inactive

Q: Now try N[C@@H](Cc1ccc(F)cc1)C(=O)O .
A: inactive

Q: Do the same for CCCC(CCC)C(=O)O please
A: inactive

***
Q: For CC(=O)Nc1nnc(S(N)(=O)=O)s1 , which call appears in the assay record?
A: inactive

Q: Consider next the compound CN1CCN(c2nc3cc(C(F)(F)F)ccc3n3cccc23)CC1 in the same way.
A: inactive

Q: Can you handle NC(=NCCCC(N)C(=O)O)N[N+](=O)[O-] (centres undefined) next?
A: inactive

Q: Same again, this time with NC(=O)C(=O)O
A: inactive

Q: Would you mind doing CCO/C([O-])=N/c1c[n+](N2CCOCC2)no1 as well?
A: inactive

* * *

Assay: chemical genetic growth profiling, strain panel (AID 1159580);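 further: tested at 20 µM; growth read once vehicle control cultures reached saturation at 30 °C; 1 = growth at the plate median or of vehicle wells; lower values mean less growth of the strain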
Details: S. cerevisiae deletion strains, growth OD, locus YDR477W, strain SNF1
The whole screen tested about 5,500 compounds, of which about 2,000 (36%) were called active. Inconclusive results (about 18%) are left out. Cut-off read from the data, not from the text of the source: active = normalized growth mostly below about 0.91 (no sharp cut-off); inconclusive = no clear call, values can overlap the other calls; inactive = mostly above about 0.92. Some of the results follow.
Result category, one only: 1 (yes) (active), 0 (no) (inactive)

Past entries and their recorded results:
Q: So what was the verdict on COc1ccc(OC)c(-c2ccn[nH]2)c1OCc1ccccc1 in this test?
A: 0 (no)

Q: Subsequent entry: S=C(Nc1cc(Cl)c(Cl)cc1Cl)Nc1ccccc1Br
A: 0 (no)

Q: Please do the same for Oc1ccc(N=Nc2ccccn2)c(O)c1 as well.
A: 1 (yes)

Continuing:
Q: Hi, sorry to bother you, what did the test record for CC1C/C(=N/Nc2ccc(Br)cc2)c2cc(Cl)ccc2S1 (stereo unspecified) ?
A: 1 (yes)

Q: Continue with CC1C/C(=N/Nc2ccc(Br)cc2)c2cc(Cl)ccc2S1(=O)=O (stereo unspecified)
A: 0 (no)

Q: And for Cc1nn(Cc2nnc(SCc3cccc(C(F)(F)F)c3)o2)c(C)c1Br ?
A: 0 (no)

Q: What about this compound? O=C(Nc1ccc(Cl)cc1)O/N=C\c1ccn(-c2ccccc2)n1
A: 0 (no)

Q: Please give the result for O=C(CCn1c(=O)oc2ccccc21)Sc1ccc(C(F)(F)F)cc1 too.
A: 0 (no)

Q: Proceed to Cc1ccc(S(=O)(=O)Nc2ccc(Oc3ccc(F)cc3)cc2)cc1
A: 0 (no)

Q: Subsequent entry: CS(=O)(=O)c1sc(C(=O)Sc2ccc(Cl)cc2)c2c1C=CCC2
A: 1 (yes)

Q: Continue with C/C(=N/Nc1ccccc1)c1cc(Cl)cc(Cl)c1O
A: 0 (no)

* * *

Test: chemical genetic growth profiling, strain panel (AID 1159580);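 further: tested at 20 µM; growth read once vehicle control cultures reached saturation at 30 °C; 1 = growth at the plate median or of vehicle wells; lower values mean less growth of the strain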
Conditions: S. cerevisiae deletion strains, growth OD, locus YGR252W, strain gcn5
Among all 5,500 compounds or so, about 2,000 (36%) were called active. Roughly 18% stayed inconclusive and do not appear here. Rule as the data show it: active = normalized growth mostly below about 0.91 (no sharp cut-off); inconclusive = no clear call, values can overlap the other calls; inactive = mostly above about 0.92. This is one part of the list.
// one of t for active, f for inactive, no free text

These solved cases illustrate the format of a correct answer.
Q: Hi, sorry to bother you, what did the test record for CN(C)N=Nc1nc[nH]c1C(N)=O ?
A: f

Q: Check CC(CN(C)C)CN1c2ccccc2CCc2ccccc21 (stereo not given) too.
A: f

Q: Please do the same for CC(CN(C)C)CN1c2ccccc2Sc2ccccc21 (stereo not given) as well.
A: f

Q: Please do the same for N[C@@H]1[C@@H](O)[C@H](O)[C@@H](CO)O[C@H]1O as well.
A: f

Q: Please give the result for CC(=O)OCC(=O)[C@@]1(O)[C@H](OC(C)=O)CC2C3CCC4=CC(=O)C=C[C@]4(C)[C@@]3(F)[C@@H](O)C[C@@]21C (stereo not given in full) too.
A: f

Q: Further, for Cc1cc(O)c(C=O)c2c1C(=O)Oc1c(C)c(O)c3c(c1O2)C(O)OC3=O (stereo not given) ?
A: f

***
Q: Per the records of this test, what outcome belongs to COc1cc(C(=O)O)c2c(c1C)OC(=O)c1c(C)cc(O)c(C=O)c1O2 ?
A: f

Q: One more compound: CC(CCC(=O)O)[C@H]1CCC2C3CC[C@@H]4C[C@H](O)CC[C@]4(C)C3CC[C@@]21C (stereo not given in full)
A: f

Q: Here is the next compound: C[C@H](N)[C@H](O)c1cccc(O)c1
A: f

Q: Next: CC(CCC(=O)O)[C@H]1CCC2C3C[C@H](O)[C@@H]4C[C@H](O)CC[C@]4(C)C3CC[C@@]21C (stereo not given in full)
A: f
